Assay Comment: Microsomal stability assay, rat
Type: in vitro ADME
Particulars: pH 7.4, rat liver microsomes
Measured Property: half-life at 0.5 μM (h)
Please respond with the number in h and leave the unit unwritten.

Entry under test: COc1cc(-c2cccc3[nH]c(-c4c[nH]c5ccccc45)nc23)cc(OC)c1OC [Compound 4] . Its half-life at 0.5 μM was 1.2

====

Assay Comment: Microsomal stability, liver microsomes over tested species
Type: in vitro ADME
Particulars: pH 7.4; human, mouse, rat liver microsomes; read-out: T1/2 over tested species liver microsomes
Measured Property: half-life at 0.5 μM

Entry under test: "COCOc1c(OC)cc(C(=O)c2csc(-c3ccccc3)n2)cc1OC" . Its half-life at 0.5 μM was < 10 min
